- procedureDetails: Solubility of the compound in PBS
measuredQuantity: solubility
# do not omit the unit; it follows the number

Known results for compounds:
Cc1ncsc1-c1ccc(CNC(=O)[C@@H]2C[C@@H](O)CN2C(=O)[C@@H](NC(=O)COCCOCc2cn(CCNC(=O)C[C@@H]3N=C(c4ccc(Cl)cc4)c4c(sc(C)c4C)-n4c(C)nnc43)nn2)C(C)(C)C)cc1	38 µM
Cc1ncsc1-c1ccc(CNC(=O)[C@@H]2C[C@@H](O)CN2C(=O)[C@@H](NC(=O)COCCOCCOCCOCc2cn(CCNC(=O)C[C@@H]3N=C(c4ccc(Cl)cc4)c4c(sc(C)c4C)-n4c(C)nnc43)nn2)C(C)(C)C)cc1	168 µM
Cc1sc2c(c1C)C(c1ccc(Cl)cc1)=N[C@@H](CC(=O)NCCn1cc(COCCOCCOCCOCCOc3cccc4c3C(=O)N(C3CCC(=O)NC3=O)C4=O)nn1)c1nnc(C)n1-2 (stereo partly drawn)	158 µM
Cc1ncsc1-c1ccc(CNC(=O)[C@@H]2C[C@@H](O)CN2C(=O)[C@@H](NC(=O)COCCOCCOCc2cn(CCNC(=O)C[C@@H]3N=C(c4ccc(Cl)cc4)c4c(sc(C)c4C)-n4c(C)nnc43)nn2)C(C)(C)C)cc1	71 µM
Cc1ncsc1-c1ccc(CNC(=O)[C@@H]2C[C@@H](O)CN2C(=O)[C@@H](NC(=O)COCCOCCOCCNC(=O)C[C@@H]2N=C(c3ccc(Cl)cc3)c3c(sc(C)c3C)-n3c(C)nnc32)C(C)(C)C)cc1	97 µM
Cc1sc2c(c1C)C(c1ccc(Cl)cc1)=N[C@@H](CC(=O)NCCn1cc(COCCOCCOc3cccc4c3C(=O)N(C3CCC(=O)NC3=O)C4=O)nn1)c1nnc(C)n1-2 (stereo partly drawn)	76 µM
Cc1sc2c(c1C)C(c1ccc(Cl)cc1)=N[C@@H](CC(=O)NCCn1cc(COCCOCCOCCOc3cccc4c3C(=O)N(C3CCC(=O)NC3=O)C4=O)nn1)c1nnc(C)n1-2 (stereo partly drawn)	130 µM

# next compound below
Prompt line: What value of solubility has been reported for the following compound? Cc1sc2c(c1C)C(c1ccc(Cl)cc1)=N[C@@H](CC(=O)NCCn1cc(COCCOc3cccc4c3C(=O)N(C3CCC(=O)NC3=O)C4=O)nn1)c1nnc(C)n1-2 (stereo partly drawn)
Response line: 111 µM

* * *

Documented %max across a set of compounds
- studyTarget: von Hippel-Lindau disease tumor suppressor/Bromodomain-containing protein 4 (Homo sapiens) (UniProt O60885+P40337)
- Sequence (P40337 whole entry, looked up, other chains not shown, the tested form may be a part): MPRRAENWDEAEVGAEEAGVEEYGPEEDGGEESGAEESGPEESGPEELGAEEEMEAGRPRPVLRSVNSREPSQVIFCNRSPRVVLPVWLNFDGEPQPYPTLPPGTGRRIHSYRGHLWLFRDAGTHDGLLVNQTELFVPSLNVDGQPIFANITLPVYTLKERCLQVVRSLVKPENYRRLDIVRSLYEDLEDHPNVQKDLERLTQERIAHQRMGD
- procedureDetails: Induction of human His-tagged VHL(1 to 154)/GST-tagged BRD4 (49 to 170 residues) interaction assessed as VHL/BRD4/compound complex formation preincubated for 60 mins and measured after 60 mins by luminescence based Alphascreen proximity assay relative to control
- Type: protein assay
# do not omit the unit; it follows the number

Prompt line: What value of %max has been reported for the following compound? Cc1ncsc1-c1ccc(CNC(=O)[C@@H]2C[C@@H](O)CN2C(=O)[C@@H](NC(=O)COCCOCc2cn(CCNC(=O)C[C@@H]3N=C(c4ccc(Cl)cc4)c4c(sc(C)c4C)-n4c(C)nnc43)nn2)C(C)(C)C)cc1
Response line: 22%

Prompt line: Then Cc1ncsc1-c1ccc(CNC(=O)[C@@H]2C[C@@H](O)CN2C(=O)[C@@H](NC(=O)COCCOCCOCCOCCOCc2cn(CCNC(=O)C[C@@H]3N=C(c4ccc(Cl)cc4)c4c(sc(C)c4C)-n4c(C)nnc43)nn2)C(C)(C)C)cc1 ?
Response line: 3%

Prompt line: Then Cc1ncsc1-c1ccc(CNC(=O)[C@@H]2C[C@@H](O)CN2C(=O)[C@@H](NC(=O)COCCOCCOCCNC(=O)C[C@@H]2N=C(c3ccc(Cl)cc3)c3c(sc(C)c3C)-n3c(C)nnc32)C(C)(C)C)cc1 ?
Response line: 100%

* * *

- procedureDetails: Solubility of the compound in PBS
measuredQuantity: solubility (µM)
Lab book: enter the figure in µM, no units written.

Cc1ncsc1-c1ccc(CNC(=O)[C@@H]2C[C@@H](O)CN2C(=O)[C@@H](NC(=O)COCCOCCOCCOCCOCc2cn(CCNC(=O)C[C@@H]3N=C(c4ccc(Cl)cc4)c4c(sc(C)c4C)-n4c(C)nnc43)nn2)C(C)(C)C)cc1	206

Prompt line: What value of solubility has been reported for the following molecule? Cc1sc2c(c1C)C(c1ccc(Cl)cc1)=N[C@@H](CC(=O)NCCCCNC(=O)COc1cccc3c1C(=O)N(C1CCC(=O)NC1=O)C3=O)c1nnc(C)n1-2 (stereo partly drawn)
Response line: 60

Prompt line: Then Cc1sc2c(c1C)C(c1ccc(Cl)cc1)=N[C@@H](CC(=O)NCCn1cc(COc3cccc4c3C(=O)N(C3CCC(=O)NC3=O)C4=O)nn1)c1nnc(C)n1-2 (stereo partly drawn) ?
Response line: 31

* * *

- studyTarget: von Hippel-Lindau disease tumor suppressor/Bromodomain-containing protein 4 (Homo sapiens) (UniProt O60885+P40337)
- procedureDetails: Induction of human His-tagged VHL(1 to 154)/GST-tagged BRD4 (49 to 170 residues) interaction assessed as VHL/BRD4/compound complex formation preincubated for 60 mins and measured after 60 mins by luminescence based Alphascreen proximity assay relative to control
- Assay type: protein assay
measuredQuantity: %max
# do not omit the unit; it follows the number

Known results for molecules:
Cc1ncsc1-c1ccc(CNC(=O)[C@@H]2C[C@@H](O)CN2C(=O)[C@@H](NC(=O)COCCOCCOCc2cn(CCNC(=O)C[C@@H]3N=C(c4ccc(Cl)cc4)c4c(sc(C)c4C)-n4c(C)nnc43)nn2)C(C)(C)C)cc1	11%
Cc1ncsc1-c1ccc(CNC(=O)[C@@H]2C[C@@H](O)CN2C(=O)[C@@H](NC(=O)COCCOCCOCCOCc2cn(CCNC(=O)C[C@@H]3N=C(c4ccc(Cl)cc4)c4c(sc(C)c4C)-n4c(C)nnc43)nn2)C(C)(C)C)cc1	15%

# next molecule below
Prompt line: What value of %max has been reported for the following molecule? Cc1ncsc1-c1ccc(CNC(=O)[C@H]2CN(C(=O)[C@@H](NC(=O)COCc3cn(CCNC(=O)C[C@@H]4N=C(c5ccc(Cl)cc5)c5c(sc(C)c5C)-n5c(C)nnc54)nn3)C(C)(C)C)C[C@@H]2O)cc1
Response line: 46%

* * *

- studyTarget: Protein cereblon/Bromodomain-containing protein 4/DNA damage-binding protein 1 (Homo sapiens, UniProt O60885+Q96SW2+Q16531)
- Sequence (Q16531 2-1140 limits assumed, other chains not shown): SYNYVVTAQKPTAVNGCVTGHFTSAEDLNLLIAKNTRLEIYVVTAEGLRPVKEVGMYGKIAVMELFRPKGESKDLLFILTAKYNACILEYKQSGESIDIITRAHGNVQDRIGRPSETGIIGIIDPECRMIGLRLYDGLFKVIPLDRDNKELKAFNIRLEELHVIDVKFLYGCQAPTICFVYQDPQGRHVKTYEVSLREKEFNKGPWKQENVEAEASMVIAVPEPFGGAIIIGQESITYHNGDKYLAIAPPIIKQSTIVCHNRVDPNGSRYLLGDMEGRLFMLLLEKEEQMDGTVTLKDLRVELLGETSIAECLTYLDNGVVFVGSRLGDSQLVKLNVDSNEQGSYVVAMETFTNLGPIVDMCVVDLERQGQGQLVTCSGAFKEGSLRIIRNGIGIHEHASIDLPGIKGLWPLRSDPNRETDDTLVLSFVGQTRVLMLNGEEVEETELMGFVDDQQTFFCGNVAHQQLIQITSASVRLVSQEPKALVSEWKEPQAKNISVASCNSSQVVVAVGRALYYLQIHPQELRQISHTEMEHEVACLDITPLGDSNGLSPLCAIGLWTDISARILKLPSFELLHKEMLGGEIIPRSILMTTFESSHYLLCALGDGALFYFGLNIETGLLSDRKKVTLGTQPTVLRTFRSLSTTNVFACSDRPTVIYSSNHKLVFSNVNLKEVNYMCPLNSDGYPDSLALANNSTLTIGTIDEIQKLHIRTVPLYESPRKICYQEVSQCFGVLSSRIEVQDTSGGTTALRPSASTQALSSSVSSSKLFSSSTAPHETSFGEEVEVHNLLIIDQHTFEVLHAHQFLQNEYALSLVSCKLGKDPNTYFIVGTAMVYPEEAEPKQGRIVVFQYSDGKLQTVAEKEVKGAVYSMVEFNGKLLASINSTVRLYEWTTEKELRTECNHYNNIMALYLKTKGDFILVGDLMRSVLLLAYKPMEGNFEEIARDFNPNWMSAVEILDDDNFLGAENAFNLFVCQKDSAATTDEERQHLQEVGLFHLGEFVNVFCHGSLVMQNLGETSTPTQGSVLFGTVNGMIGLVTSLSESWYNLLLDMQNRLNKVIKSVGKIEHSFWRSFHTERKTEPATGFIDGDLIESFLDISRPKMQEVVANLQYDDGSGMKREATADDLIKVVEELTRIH
- Sequence (Q96SW2 whole entry, other chains not shown): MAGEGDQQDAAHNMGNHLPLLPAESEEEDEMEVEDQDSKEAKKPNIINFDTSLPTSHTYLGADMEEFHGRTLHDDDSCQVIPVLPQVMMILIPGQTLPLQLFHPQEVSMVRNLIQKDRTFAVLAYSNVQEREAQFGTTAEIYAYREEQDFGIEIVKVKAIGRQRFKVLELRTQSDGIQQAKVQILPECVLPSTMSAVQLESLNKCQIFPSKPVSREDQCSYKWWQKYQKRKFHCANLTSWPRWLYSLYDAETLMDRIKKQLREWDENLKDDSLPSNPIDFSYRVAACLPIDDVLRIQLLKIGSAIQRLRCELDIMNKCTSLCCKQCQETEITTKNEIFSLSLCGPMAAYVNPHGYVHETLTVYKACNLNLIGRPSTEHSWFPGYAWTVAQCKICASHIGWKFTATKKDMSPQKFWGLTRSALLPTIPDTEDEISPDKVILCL
- procedureDetails: Induction of CRBN/DDB1-mediated BRD4 protein degradation in human NCI-H661 cells assessed as drug level causing 50% cellular protein depletion incubated for 4 hrs by MSD assay
Binary label based on DC50 with cut-off 200 nM: below gives y, not below gives n.

Cc1ncsc1-c1ccc(CNC(=O)[C@H]2CN(C(=O)[C@@H](NC(=O)COCc3cn(CCNC(=O)C[C@@H]4N=C(c5ccc(Cl)cc5)c5c(sc(C)c5C)-n5c(C)nnc54)nn3)C(C)(C)C)C[C@@H]2O)cc1	y
Cc1ncsc1-c1ccc(CNC(=O)[C@@H]2C[C@@H](O)CN2C(=O)[C@@H](NC(=O)COCCOCCOCCOCc2cn(CCNC(=O)C[C@@H]3N=C(c4ccc(Cl)cc4)c4c(sc(C)c4C)-n4c(C)nnc43)nn2)C(C)(C)C)cc1	n
Cc1sc2c(c1C)C(c1ccc(Cl)cc1)=N[C@@H](CC(=O)NCCn1cc(COCCOCCOc3cccc4c3C(=O)N(C3CCC(=O)NC3=O)C4=O)nn1)c1nnc(C)n1-2 (stereo partly drawn)	n
Cc1sc2c(c1C)C(c1ccc(Cl)cc1)=N[C@@H](CC(=O)NCCn1cc(COCCOc3cccc4c3C(=O)N(C3CCC(=O)NC3=O)C4=O)nn1)c1nnc(C)n1-2 (stereo partly drawn)	n
Cc1ncsc1-c1ccc(CNC(=O)[C@@H]2C[C@@H](O)CN2C(=O)[C@@H](NC(=O)COCCOCCOCc2cn(CCNC(=O)C[C@@H]3N=C(c4ccc(Cl)cc4)c4c(sc(C)c4C)-n4c(C)nnc43)nn2)C(C)(C)C)cc1	n
Cc1ncsc1-c1ccc(CNC(=O)[C@@H]2C[C@@H](O)CN2C(=O)[C@@H](NC(=O)COCCOCc2cn(CCNC(=O)C[C@@H]3N=C(c4ccc(Cl)cc4)c4c(sc(C)c4C)-n4c(C)nnc43)nn2)C(C)(C)C)cc1	y

Prompt line: Hi there! Is DC50 for Cc1ncsc1-c1ccc(CNC(=O)[C@@H]2C[C@@H](O)CN2C(=O)[C@@H](NC(=O)COCCOCCOCCOCCOCc2cn(CCNC(=O)C[C@@H]3N=C(c4ccc(Cl)cc4)c4c(sc(C)c4C)-n4c(C)nnc43)nn2)C(C)(C)C)cc1 below 200 nM, do you know?
Response line: n

meta.source: ChEMBL document CHEMBL4219024
